Protocol: in vivo
Condition Set: female, Fischer 344, rat, sc, 10 mg/kg, Vss/F

- Compound: "CC[C@@]1(O)C(=O)OCc2c1cc1n(c2=O)Cc2cc3c(CN(C)C)c(O)ccc3nc2-1 [TPT, 9-amino-dimethyl-10-hydroxycamptothecin]"
  Vd/F / L: 6.07

###

Protocol: in vivo
Condition Set: female, Fischer 344, rat, iv, 10 mg/kg, Vz
Measured Quantity: Vd (L)

- Compound: "CC[C@@]1(O)C(=O)OCc2c1cc1n(c2=O)Cc2cc3c(CN(C)C)c(O)ccc3nc2-1 [TPT, 9-amino-dimethyl-10-hydroxycamptothecin]"
  Units Of Measure: "L"
  Readout Number: 3.55

###

Protocol: in vivo
Condition Set: female, Fischer 344, rat, iv, 10 mg/kg

- Molecule: "CC[C@@]1(O)C(=O)OCc2c1cc1n(c2=O)Cc2cc3c(CN(C)C)c(O)ccc3nc2-1 [TPT, 9-amino-dimethyl-10-hydroxycamptothecin]"
  AUC(0-t): "5790 ng·h/mL"

###

Protocol: in vivo
Condition Set: female, Fischer 344, rat, sc, 10 mg/kg, Cmax

- Compound: "CC[C@@]1(O)C(=O)OCc2c1cc1n(c2=O)Cc2cc3c(CN(C)C)c(O)ccc3nc2-1 [TPT, 9-amino-dimethyl-10-hydroxycamptothecin]"
  Cmax, ng/mL: 468

###

Protocol: in vivo
Condition Set: female, Fischer 344, rat, sc, 10 mg/kg, AUC

- Compound: "CC[C@@]1(O)C(=O)OCc2c1cc1n(c2=O)Cc2cc3c(CN(C)C)c(O)ccc3nc2-1 [TPT, 9-amino-dimethyl-10-hydroxycamptothecin]"
  Units Of Measure: "µg·h/mL"
  AUC: 5.8

###

Protocol: in vivo
Condition Set: female, Fischer 344, rat, iv, 10 mg/kg, Alpha-t1/2

- Compound: "CC[C@@]1(O)C(=O)OCc2c1cc1n(c2=O)Cc2cc3c(CN(C)C)c(O)ccc3nc2-1 [TPT, 9-amino-dimethyl-10-hydroxycamptothecin]"
  half-life, min: 50.4

###

Protocol: in vivo
Condition Set: female, Fischer 344, rat, iv, 10 mg/kg, MRT

- Molecule: "CC[C@@]1(O)C(=O)OCc2c1cc1n(c2=O)Cc2cc3c(CN(C)C)c(O)ccc3nc2-1 [TPT, 9-amino-dimethyl-10-hydroxycamptothecin]"
  MRT, h: 2.95

###

Protocol: in vivo
Condition Set: female, Fischer 344, rat, iv, 10 mg/kg, Cl

- Compound: "CC[C@@]1(O)C(=O)OCc2c1cc1n(c2=O)Cc2cc3c(CN(C)C)c(O)ccc3nc2-1 [TPT, 9-amino-dimethyl-10-hydroxycamptothecin]"
  clearance, mL/min: 7.55

###

Protocol: in vivo
Condition Set: female, Fischer 344, rat, sc, 10 mg/kg, tmax
Measured Quantity: tmax (h)

- Compound: "CC[C@@]1(O)C(=O)OCc2c1cc1n(c2=O)Cc2cc3c(CN(C)C)c(O)ccc3nc2-1 [TPT, 9-amino-dimethyl-10-hydroxycamptothecin]"
  Measured Quantity: "tmax"
  Readout Number: 2.67

###

Protocol: in vivo
Condition Set: female, Fischer 344, rat, sc, 10 mg/kg, Ka-t1/2
Measured Quantity: half-life (min)

- Compound: "CC[C@@]1(O)C(=O)OCc2c1cc1n(c2=O)Cc2cc3c(CN(C)C)c(O)ccc3nc2-1 [TPT, 9-amino-dimethyl-10-hydroxycamptothecin]"
  Measured Quantity: "half-life"
  Units Of Measure: "min"
  Readout Number: 19.2

###

Protocol: in vivo
Condition Set: female, Fischer 344, rat, iv, 10 mg/kg

- Molecule: "CC[C@@]1(O)C(=O)OCc2c1cc1n(c2=O)Cc2cc3c(CN(C)C)c(O)ccc3nc2-1 [TPT, 9-amino-dimethyl-10-hydroxycamptothecin]"
  Units Of Measure: "ng·h/mL"
  AUC(0-inf): 5910

###

Test system: A2780 (sensitive) human ovarian carcinoma cells
Protocol: cells
Assay type: cell-based
Condition Set: A2780, 48 h, read-out: IC50 (nM) A2780
Measured Quantity: IC50 (nM)

- Molecule: "CC[C@@]1(O)C(=O)OCc2c1cc1n(c2=O)Cc2cc3c(CN(C)C)c(O)ccc3nc2-1 [TPT, 9-amino-dimethyl-10-hydroxycamptothecin]"
  Test Target: "A2780 (sensitive) human ovarian carcinoma cells"
  Readout Number: 25.3

###

Protocol: in vivo
Condition Set: female, Fischer 344, rat, iv, 10 mg/kg, AUC

- Compound: "CC[C@@]1(O)C(=O)OCc2c1cc1n(c2=O)Cc2cc3c(CN(C)C)c(O)ccc3nc2-1 [TPT, 9-amino-dimethyl-10-hydroxycamptothecin]"
  AUC: "5960 ng·h/mL"

###

Protocol: in vivo
Condition Set: female, Fischer 344, rat, sc, 10 mg/kg

- Compound: "CC[C@@]1(O)C(=O)OCc2c1cc1n(c2=O)Cc2cc3c(CN(C)C)c(O)ccc3nc2-1 [TPT, 9-amino-dimethyl-10-hydroxycamptothecin]"
  AUC(0-t), ng·h/mL: 4470

###

Protocol: in vivo
Condition Set: female, Fischer 344, rat, iv, 10 mg/kg, t1/2
Measured Quantity: half-life (h)

- Compound: "CC[C@@]1(O)C(=O)OCc2c1cc1n(c2=O)Cc2cc3c(CN(C)C)c(O)ccc3nc2-1 [TPT, 9-amino-dimethyl-10-hydroxycamptothecin]"
  Measured Quantity: "half-life"
  Readout Number: 6.16

###

Protocol: in vivo
Condition Set: female, Fischer 344, rat, sc, 10 mg/kg, Vz/F

- Molecule: "CC[C@@]1(O)C(=O)OCc2c1cc1n(c2=O)Cc2cc3c(CN(C)C)c(O)ccc3nc2-1 [TPT, 9-amino-dimethyl-10-hydroxycamptothecin]"
  Vd/F / L: 5.97

###

Protocol: in vivo
Condition Set: female, Fischer 344, rat, iv, 10 mg/kg

- Molecule: "CC[C@@]1(O)C(=O)OCc2c1cc1n(c2=O)Cc2cc3c(CN(C)C)c(O)ccc3nc2-1 [TPT, 9-amino-dimethyl-10-hydroxycamptothecin]"
  bioavailability: "100%"
